- target.or.test.system: T1, human CCR8 (human, UniProt P51685 1-355)
- T1 construct: Native CCR8 on human PBMC (CCR8+ CD3+ or CCR8+ CD4+ lymphocytes); also called chemokine (C-C motif) receptor 8
- T1 sequence (P51685 whole entry): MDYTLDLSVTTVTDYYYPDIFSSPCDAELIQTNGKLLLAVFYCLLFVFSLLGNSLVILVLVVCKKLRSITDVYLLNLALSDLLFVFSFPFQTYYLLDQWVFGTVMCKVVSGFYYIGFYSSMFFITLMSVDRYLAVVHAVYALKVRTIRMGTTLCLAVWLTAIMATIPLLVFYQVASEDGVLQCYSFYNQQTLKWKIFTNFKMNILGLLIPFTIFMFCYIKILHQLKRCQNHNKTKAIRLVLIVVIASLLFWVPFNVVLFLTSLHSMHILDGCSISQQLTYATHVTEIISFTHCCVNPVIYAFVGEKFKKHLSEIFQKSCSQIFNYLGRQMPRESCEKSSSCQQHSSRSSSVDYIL
- assay.protocol: flow blocking, PBMC CCR8+CD3+; competitor PE-AB13
Below: a set of entries, each annotated with reported MFI.
# output: bare number, no unit

1. AB8 (antibody, V domains shown, Hybridoma monoclonal; also called antibody 8; clone 8) VH: AVQLVESGGGLVQPKESLKISCAASGFIFSNAAMYWVRQAPGKGLQWVARIRTKPKNYATYYIDSVKGRFTISRDDSKSMVYLQMDNLKTEDTAMYYCNTMGLTRAYYFDYWGQGVMVTVSS VL: DIQMTQSPSFLSASVGDRVTINCKASQNINRYLNWYQQKLGEAPKLLIYNANSLQTGIPSRFSGSGSGTDFTLTIRSLQPEDVATYFCLQHNSWPWTFGGGTKLELK | 1330

q: # input binder: AB5 (antibody, V domains shown, Hybridoma monoclonal; Same VH/VL entries as AB6; also called antibody 5; clone 5) VH: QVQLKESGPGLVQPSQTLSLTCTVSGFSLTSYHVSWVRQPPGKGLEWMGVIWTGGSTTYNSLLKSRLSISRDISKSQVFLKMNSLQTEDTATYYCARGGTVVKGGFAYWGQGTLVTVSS VL: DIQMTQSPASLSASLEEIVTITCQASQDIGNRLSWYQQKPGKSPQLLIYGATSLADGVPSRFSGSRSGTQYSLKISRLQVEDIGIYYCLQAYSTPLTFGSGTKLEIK ; wanted: its MFI
a: 947

q: # input binder: AB6 (antibody, V domains shown, Hybridoma monoclonal; Same VH/VL entries as AB5; also called antibody 6; clone 6) VH: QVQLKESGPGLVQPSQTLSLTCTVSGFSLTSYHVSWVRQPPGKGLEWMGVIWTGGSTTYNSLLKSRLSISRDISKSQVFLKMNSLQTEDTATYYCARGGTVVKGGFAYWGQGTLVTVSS VL: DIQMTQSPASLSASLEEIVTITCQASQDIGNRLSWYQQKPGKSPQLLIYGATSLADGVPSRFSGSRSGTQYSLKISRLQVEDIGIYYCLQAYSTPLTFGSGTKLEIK ; wanted: its MFI
a: 862

q: # input binder: AB7 (antibody, V domains shown, Hybridoma monoclonal; also called antibody 7; clone 7) VH: AVQLVESGGGLVQPKESLKISCAASGFTFSYAAMYWVRQTPGKGLEWVARIRTKPNNYATYYADSVKGRFTISRDDSKSMVYLQMDNLKSEDTAMYYCNIMGITRGYYFDYWGQGVMVTVSS VL: DIQMTQSPSFLSASVGDRVTINCKASQNINRYLNWYQQQLGEAPKLLIYNANNLQTGIPSRFSGSRSGTDFTLTISSLQPEDVATYFCLQHNSWPWTFGGGTKLELK ; wanted: its MFI
a: 888

q: # input binder: AB11 (antibody, V domains shown, Hybridoma monoclonal; also called antibody 11; clone 11) VH: EVQLVESGGGLVQPKGSLKLSCAASGFAFNTYAMNWVRQAPGKGLEWIARLRSKSNFYATYYADSVKDRFTISRDDSQSMLYLQMNNLKTEDTAVYYCVRGRELGPSYAMDYWGQGTSVTVSS VL: DIVMTQAAPSVPVTPGESVSISCRSSKSLLHSNGNTYLYWFLQRPGQSPQLLIYRMSNLASGVPDRFSGSGSGTAFTLRISRVEAEDVGVYYCMQHLEYPYTFGGGTKLEIK ; wanted: its MFI
a: 579

q: # input binder: AB13 (antibody, V domains shown, Hybridoma monoclonal; also called antibody 13; clone 13) VH: EVQLVETGGGLVQPKGSLKLSCAASGFTFNAYAMNWVRQAPGKGLEWVARIRTKSNNYATYYADSVKDRFTISRDDSQTMLYLQMNNLKTEDTAMYYCVRDRATVTTGRAMDYWGQGTSVTVSS VL: DIVMTQAAPSLPVTPGESVSISCRSSKSLLHSNGNTYLYWFLQRAGQSPQLLIYRMSNLASGVPDRFSGSGSGTAFTLRISRVEAEDVGVYYCMQHLEYPFTFGSGTKLEIK ; wanted: its MFI
a: 668

q: # input binder: AB10 (antibody, V domains shown, Hybridoma monoclonal; also called antibody 10; clone 10) VH: EVQLVETGGGLVQPKGSLKLSCAVSGFTFKTNAMNWVRQAPGKGLEWVARIRSKSNKYATYYADSVKDRFTISRDDSQSMLYLQMNNLKTEDTAMYYCVRGSEMGYYYAMDYWGQGTSVTVSS VL: DIVMTQAAPSVPVTPGESVSISCRSSKSLLHSNGNTYLYWFLQRPGQSPQLLIYRMSNLASGVPDRFSGSGSGTAFTLRISRVEAEDVGVYYCMQHLEYPFTFGGGTKLEIK ; wanted: its MFI
a: 499
